# procedure.summary: Pharmacokinetic study of Compound A in healthy human males (Example 10)
# Format: in vivo
# assay.context: male, plasma, po, 50 mg, 50 mg single oral dose, suspension of sulfate salt, fasted, mean of 6 subjects
endpoint: Tmax (min)
Give bare numbers, in min.

Request the reported Tmax associated with `CC(C)(C)NC(=O)[C@@H]1CN(Cc2cc3ccccc3o2)CCN1C[C@@H](O)C[C@@H](Cc1ccccc1)C(=O)N[C@H]1c2ccccc2C[C@H]1O`
36

====

# procedure.summary: Pharmacokinetic study of Compound A alone and in combination with Indinavir in healthy human males (Example 11)
# Format: in vivo
# assay.context: male, human, plasma, po, 1600 mg, 1600 mg single oral dose, suspension of sulfate salt, fasted, n=6; plasma 8 hours after dosing; read-out: C8 hrs
endpoint: concentration at 8 h

For the compound `CC(C)(C)NC(=O)[C@@H]1CN(Cc2cc3ccccc3o2)CCN1C[C@@H](O)C[C@@H](Cc1ccccc1)C(=O)N[C@H]1c2ccccc2C[C@H]1O` , what concentration at 8 h is on record?
163 nM

====

# procedure.summary: Pharmacokinetic study of Compound A alone and in combination with Indinavir in healthy human males (Example 11)
# Assay type: in vivo
# assay.context: male, human, plasma, po, 600 mg, 600 mg (tablets) single oral dose, sulfate salt, fasted, n=8; plasma 8 hours after dosing; read-out: C8 hrs
endpoint: concentration at 8 h (µM)
One number for each entry, in µM.

Requested read-out: concentration at 8 h. Entry: `CC(C)(C)NC(=O)[C@@H]1CN(Cc2cc3ccccc3o2)CCN1C[C@@H](O)C[C@@H](Cc1ccccc1)C(=O)N[C@H]1c2ccccc2C[C@H]1O`
0.05

====

# procedure.summary: Pharmacokinetic study of Compound A in healthy human males (Example 10)
# Type: in vivo
# assay.context: male, plasma, po, 800 mg, 800 mg single oral dose, suspension of sulfate salt, fasted, plasma 8 hours after dosing, mean (CV %), read-out: C8 hrs
endpoint: concentration at 8 h (nM)
Numbers only, in nM.

# get_value(readout='concentration at 8 h', item= `CC(C)(C)NC(=O)[C@@H]1CN(Cc2cc3ccccc3o2)CCN1C[C@@H](O)C[C@@H](Cc1ccccc1)C(=O)N[C@H]1c2ccccc2C[C@H]1O` )
126

====

# procedure.summary: Pharmacokinetic study of Compound A alone and in combination with Indinavir in healthy human males (Example 11)
# Format: in vivo
# assay.context: male, human, plasma, po, 200 mg Compound A + 800 mg IDV (Indinavir) co-administered, single oral dose, fasted, n=6; arithmetic mean
endpoint: Cmax (nM)
Give bare numbers, in nM.

So what does the record say about Cmax for `CC(C)(C)NC(=O)[C@@H]1CN(Cc2cc3ccccc3o2)CCN1C[C@@H](O)C[C@@H](Cc1ccccc1)C(=O)N[C@H]1c2ccccc2C[C@H]1O` ?
1580

====

# procedure.summary: Pharmacokinetic study of Compound A alone and in combination with Indinavir in healthy human males (Example 11)
# Type: in vivo
# assay.context: male, human, plasma, po, 200 mg Compound A + 1200 mg IDV (Indinavir) co-administered, single oral dose, fasted, n=6; arithmetic mean
endpoint: Tmax
Provide the measurement as a number trailed by its unit.

For the compound shown here, `CC(C)(C)NC(=O)[C@@H]1CN(Cc2cc3ccccc3o2)CCN1C[C@@H](O)C[C@@H](Cc1ccccc1)C(=O)N[C@H]1c2ccccc2C[C@H]1O` , give the reported Tmax.
2.3 h

====

# procedure.summary: Pharmacokinetic study of Compound A in healthy human males (Example 10)
# Assay type: in vivo
# assay.context: male, plasma, po, 200 mg, 200 mg single oral dose, suspension of sulfate salt, fasted, plasma 8 hours after dosing, CV not determinable, read-out: C8 hrs
endpoint: concentration at 8 h (nM)
One number for each entry, in nM.

# get_value(readout='concentration at 8 h', item= CC(C)(C)NC(=O)[C@@H]1CN(Cc2cc3ccccc3o2)CCN1C[C@@H](O)C[C@@H](Cc1ccccc1)C(=O)N[C@H]1c2ccccc2C[C@H]1O [Compound A] )
5

====

# procedure.summary: Pharmacokinetic study of Compound A alone and in combination with Indinavir in healthy human males (Example 11)
# Assay type: in vivo
# assay.context: male, human, plasma, po, 600 mg, 600 mg single oral dose, suspension of sulfate salt, fasted, n=8; plasma 24 hours after dosing; read-out: C24 hrs
endpoint: concentration at 24 h (nM)
Numbers only, in nM.

I have this molecule here, CC(C)(C)NC(=O)[C@@H]1CN(Cc2cc3ccccc3o2)CCN1C[C@@H](O)C[C@@H](Cc1ccccc1)C(=O)N[C@H]1c2ccccc2C[C@H]1O [Compound A] , and I need its recorded concentration at 24 h.
13

====

# procedure.summary: Pharmacokinetic study of Compound A alone and in combination with Indinavir in healthy human males (Example 11)
# Type: in vivo
# assay.context: male, human, plasma, po, 2000 mg, 2000 mg single oral dose, suspension of sulfate salt, fasted, n=8; arithmetic mean
endpoint: Cmax

Query: Cmax; subject: CC(C)(C)NC(=O)[C@@H]1CN(Cc2cc3ccccc3o2)CCN1C[C@@H](O)C[C@@H](Cc1ccccc1)C(=O)N[C@H]1c2ccccc2C[C@H]1O [Compound A]
1270 nM

====

# procedure.summary: Pharmacokinetic study of Compound A in healthy human males (Example 10)
# Assay type: in vivo
# assay.context: male, plasma, po, 1200 mg, 1200 mg single oral dose, suspension of sulfate salt, fasted, mean of 6 subjects (CV %)
endpoint: Cmax
Could you give the number and then its unit, please?

For the molecule `CC(C)(C)NC(=O)[C@@H]1CN(Cc2cc3ccccc3o2)CCN1C[C@@H](O)C[C@@H](Cc1ccccc1)C(=O)N[C@H]1c2ccccc2C[C@H]1O` , what Cmax is on record?
1350 nM

====

# procedure.summary: Pharmacokinetic study of Compound A in healthy human males (Example 10)
# Type: in vivo
# assay.context: male, plasma, po, 400 mg, 400 mg single oral dose, suspension of sulfate salt, fasted, mean of 6 subjects (CV %)
endpoint: Cmax (nM)
Answers are plain numbers, in nM.

Entry CC(C)(C)NC(=O)[C@@H]1CN(Cc2cc3ccccc3o2)CCN1C[C@@H](O)C[C@@H](Cc1ccccc1)C(=O)N[C@H]1c2ccccc2C[C@H]1O [Compound A] : reported Cmax = ?
166

====

# procedure.summary: Pharmacokinetic study of Compound A in healthy human males (Example 10)
# Format: in vivo
# assay.context: male, plasma, po, 400 mg, 400 mg single oral dose, suspension of sulfate salt, fasted, plasma 12 hours after dosing, CV not determinable, read-out: C12 hrs
endpoint: concentration at 12 h (nM)
Give bare numbers, in nM.

Value lookup for concentration at 12 h; key = `CC(C)(C)NC(=O)[C@@H]1CN(Cc2cc3ccccc3o2)CCN1C[C@@H](O)C[C@@H](Cc1ccccc1)C(=O)N[C@H]1c2ccccc2C[C@H]1O`
6

====

# procedure.summary: Pharmacokinetic study of Compound A alone and in combination with Indinavir in healthy human males (Example 11)
# Format: in vivo
# assay.context: male, human, plasma, po, 600 mg Compound A + 800 mg IDV (Indinavir) co-administered, single oral dose, fasted, n=8; plasma 24 hours after dosing; read-out: C24 hrs
endpoint: concentration at 24 h

Fill in the blank: the reported concentration at 24 h of `CC(C)(C)NC(=O)[C@@H]1CN(Cc2cc3ccccc3o2)CCN1C[C@@H](O)C[C@@H](Cc1ccccc1)C(=O)N[C@H]1c2ccccc2C[C@H]1O` is ____.
65 nM

====

# procedure.summary: Pharmacokinetic study of Compound A in healthy human males (Example 10)
# Assay type: in vivo
# assay.context: male, plasma, po, 400 mg, 400 mg w/food, single oral dose, suspension of sulfate salt, plasma 8 hours after dosing, mean (CV %), read-out: C8 hrs
endpoint: concentration at 8 h (nM)
Numbers only, in nM.

Name the reported concentration at 8 h value associated with the molecule CC(C)(C)NC(=O)[C@@H]1CN(Cc2cc3ccccc3o2)CCN1C[C@@H](O)C[C@@H](Cc1ccccc1)C(=O)N[C@H]1c2ccccc2C[C@H]1O [Compound A]
32

====

# procedure.summary: Pharmacokinetic study of Compound A alone and in combination with Indinavir in healthy human males (Example 11)
# Assay type: in vivo
# assay.context: male, human, plasma, po, 600 mg, 600 mg single oral dose, suspension of sulfate salt, fasted, n=8; arithmetic mean (CV %)
endpoint: AUC (µM·h)
Answers are plain numbers, in µM·h.

Quick one: AUC of `CC(C)(C)NC(=O)[C@@H]1CN(Cc2cc3ccccc3o2)CCN1C[C@@H](O)C[C@@H](Cc1ccccc1)C(=O)N[C@H]1c2ccccc2C[C@H]1O` ?
1.41

====

# procedure.summary: Pharmacokinetic study of Compound A in healthy human males (Example 10)
# Format: in vivo
# assay.context: male, plasma, po, 1200 mg, 1200 mg single oral dose, suspension of sulfate salt, fasted, plasma 12 hours after dosing, mean (CV %), read-out: C12 hrs
# Protocol: A double-blind, single-rising dose, alternating two-panel, four-period, placebo-controlled study was conducted for Compound A in healthy adult males in the fasted state. […] The safety of the subjects was monitored prior and subsequent to dosing by clinical adverse event reporting, measurement of vital signs, physical examinations, blood and urine laboratory safety tests, and ECGs. […]
endpoint: concentration at 12 h (nM)
Numbers only, in nM.

Entry CC(C)(C)NC(=O)[C@@H]1CN(Cc2cc3ccccc3o2)CCN1C[C@@H](O)C[C@@H](Cc1ccccc1)C(=O)N[C@H]1c2ccccc2C[C@H]1O [Compound A] has what concentration at 12 h?
128
